Assay read-out log10 Ki on Muscarinic acetylcholine receptor M2 (Homo sapiens, UniProt P08172); records merged from the literature.
System: Muscarinic acetylcholine receptor M2 (Homo sapiens, UniProt P08172)
Sequence (P08172 whole entry): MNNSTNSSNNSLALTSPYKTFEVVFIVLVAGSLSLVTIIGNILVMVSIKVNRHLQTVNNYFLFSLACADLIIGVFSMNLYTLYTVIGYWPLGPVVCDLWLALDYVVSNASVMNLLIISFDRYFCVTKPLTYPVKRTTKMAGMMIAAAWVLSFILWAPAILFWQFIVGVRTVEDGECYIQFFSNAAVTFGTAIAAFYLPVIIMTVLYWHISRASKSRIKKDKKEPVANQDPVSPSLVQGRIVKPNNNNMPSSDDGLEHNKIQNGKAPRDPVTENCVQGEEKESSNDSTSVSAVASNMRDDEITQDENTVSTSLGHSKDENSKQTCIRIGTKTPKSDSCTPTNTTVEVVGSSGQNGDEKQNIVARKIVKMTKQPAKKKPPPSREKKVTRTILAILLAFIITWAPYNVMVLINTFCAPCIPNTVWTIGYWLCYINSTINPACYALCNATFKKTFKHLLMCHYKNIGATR
Short version: log10 scale, Ki, µM.

Guide cases for log10 Ki, answers given:
Compound: CC(C)S(=O)(=O)c1ccc(CC2CCN(C3CCN(C(=O)c4ccc(F)c5ccccc45)CC3)CC2)cc1
log10 Ki: -1.77
--
Compound: C#CCCCCCCN1CCC(COC(=O)Nc2ccc(F)cc2-c2ccc(F)c(Cl)c2)CC1
log10 Ki: -2.03
--
Compound: CN1CCC(Oc2nc3ccccc3n2-c2ccccc2)CC1
log10 Ki: -0.97
--
Compound: CC(=C1CCN(C2CCN(C(=O)c3ccc(F)c4ccccc34)CC2)CC1)c1ccc(S(=O)(=O)C(C)C)cc1
log10 Ki: -2.02
--
Compound: CC(c1ccc(S(=O)(=O)c2ccc(S(C)(=O)=O)cc2)cc1)N1CCN(C2CCCCC2)CC1 (centres undefined)
log10 Ki: -1.44

Enquiry: Need log10 Ki, item CN(CCc1ccccn1)[C@H]1C2C3CC4C5C3CC2C5C41 (some centres undefined)
Return: 0.55

Enquiry: Also check "C=C(c1ccc(S(=O)(=O)c2ccc(OC)cc2)cc1)C1CCN(C2CCN(C(=O)OCCCC)CC2)CC1"
Return: -3.46
